Catalogue of Activity readings, one per entry.
- Tested on: KB
- test.method.notes: Cytotoxicity against human KB cells assessed as cell viability after 48 hrs by neutral red uptake assay
- Type: cell-based
Residues, ends and D or L forms follow the SMILES beside them. *: point of attachment. Boc = CC(C)(C)OC(=O)*; NHBn = c1ccc(CN*)cc1

{"compound": "CC(C)(C)OC(=O)N[C@@H](Cc1c[nH]c2ccccc12)C(=O)N[C@@H](Cc1c[nH]c(-c2cccc3ccccc23)n1)C(=O)NCc1ccccc1", "tgt": "KB", "Activity": "> 10 µg/mL"}
{"compound": "N[C@@H](Cc1c[nH]c2ccccc12)C(=O)N[C@@H](Cc1c[nH]c(-c2cccc3ccccc23)n1)C(=O)NCc1ccccc1", "tgt": "KB", "Activity": "> 10 µg/mL"}
{"compound": "COC(=O)[C@H](Cc1c[nH]c(-c2ccc(C(C)(C)C)cc2)n1)NC(=O)[C@@H](N)Cc1c[nH]c2ccccc12", "tgt": "KB", "Activity": "> 10 µg/mL"}
{"compound": "N[C@@H](Cc1c[nH]c2ccccc12)C(=O)N[C@@H](Cc1c[nH]c(-c2ccccc2)n1)C(=O)NCc1ccccc1", "tgt": "KB", "Activity": "> 10 µg/mL"}
{"compound": "CC(C)(C)OC(=O)N[C@@H](Cc1c[nH]c(-c2ccc(-c3ccccc3)cc2)n1)C(=O)N[C@@H](CCCNC(=N)N)C(=O)NCc1ccccc1", "tgt": "KB", "Activity": "> 10 µg/mL"}

Memo: COC(=O)[C@H](CCCNC(=N)N)NC(=O)[C@@H](N)Cc1c[nH]c(-c2ccc(-c3ccccc3)cc2)n1 , reported Activity: > 10 µg/mL

Memo: N=C(N)NCCC[C@H](NC(=O)[C@@H](N)Cc1c[nH]c(-c2cccc3ccccc23)n1)C(=O)NCc1ccccc1 , reported Activity: > 10 µg/mL

Memo: Cc1ccc(-c2nc(C[C@H](NC(=O)[C@@H](N)Cc3c[nH]c4ccccc34)C(=O)NCc3ccccc3)c[nH]2)cc1 , reported Activity: > 10 µg/mL

Memo: CC(C)(C)OC(=O)N[C@@H](Cc1c[nH]cn1)C(=O)N[C@@H](CCCNC(=N)N)C(=O)NCc1ccccc1 (Boc-His-Arg-NHBn) , reported Activity: > 10 µg/mL

* * *

- Tested on: SK-MEL
- test.method.notes: Cytotoxicity against human SK-MEL cells assessed as cell viability after 48 hrs by neutral red uptake assay
- Assay type: cell-based
Residues, ends and D or L forms follow the SMILES beside them. *: point of attachment. Boc = CC(C)(C)OC(=O)*; NHBn = c1ccc(CN*)cc1
property: Activity

Some molecules with known Activity results, for comparison:
{"molecule": "COC(=O)[C@H](Cc1c[nH]c(-c2ccc(-c3ccccc3)cc2)n1)NC(=O)[C@@H](N)Cc1c[nH]c2ccccc12", "Activity": "> 10 µg/mL"}
{"molecule": "CC(C)(C)OC(=O)N[C@@H](Cc1c[nH]cn1)C(=O)N[C@@H](CCCNC(=N)N)C(=O)NCc1ccccc1 (Boc-His-Arg-NHBn)", "Activity": "> 10 µg/mL"}

Memo: N=C(N)NCCC[C@H](NC(=O)[C@@H](N)Cc1c[nH]c(-c2cccc3ccccc23)n1)C(=O)NCc1ccccc1 , reported Activity: > 10 µg/mL

Memo: COC(=O)[C@H](Cc1c[nH]c(-c2ccccc2)n1)NC(=O)[C@H](Cc1c[nH]c2ccccc12)NC(=O)OC(C)(C)C , reported Activity: > 10 µg/mL

Memo: COc1ccc(-c2nc(C[C@H](NC(=O)OC(C)(C)C)C(=O)N[C@@H](CCCNC(=N)N)C(=O)NCc3ccccc3)c[nH]2)cc1 , reported Activity: > 10 µg/mL

Memo: N=C(N)NCCC[C@H](NC(=O)[C@@H](N)Cc1c[nH]c(-c2ccccc2)n1)C(=O)NCc1ccccc1 , reported Activity: > 10 µg/mL

Memo: CC(C)(C)OC(=O)N[C@@H](Cc1c[nH]c2ccccc12)C(=O)N[C@@H](Cc1c[nH]cn1)C(=O)NCc1ccccc1 (Boc-Trp-His-NHBn) , reported Activity: > 10 µg/mL
